target: Voltage-gated potassium channel subunit beta-2 (Rattus norvegicus) (UniProt P62483); assay: inhibitors of rat Kvbeta2 reductase activity – biochemical, NADPH fluorescence, primary screen (AID 622); conditions: recombinant KvBeta, 4-cyanobenzaldehyde reduction, at 10 µM, active compounds read high;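 also: slope of raw intensity against log time taken from 70 to 1610 s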
Sequence (P62483 whole entry, looked up): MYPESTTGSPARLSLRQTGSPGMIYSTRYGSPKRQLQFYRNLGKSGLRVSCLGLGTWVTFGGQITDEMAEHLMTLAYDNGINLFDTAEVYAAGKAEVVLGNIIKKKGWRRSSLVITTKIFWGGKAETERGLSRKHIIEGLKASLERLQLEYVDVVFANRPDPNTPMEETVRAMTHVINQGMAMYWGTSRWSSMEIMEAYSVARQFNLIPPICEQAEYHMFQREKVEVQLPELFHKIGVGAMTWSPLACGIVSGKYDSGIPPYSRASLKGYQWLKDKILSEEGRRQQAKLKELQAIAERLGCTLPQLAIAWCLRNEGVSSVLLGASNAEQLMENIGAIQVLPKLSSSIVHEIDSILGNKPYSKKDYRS
assayMetric: fluorescence slope
Form: value (number only, do not type unit).

1) N#Cc1ccc(CSc2nnc(-c3ccccn3)n2-c2ccccc2)cc1 : -0.426
2) CC(=O)Nc1c(O)n(C)c2ccccc12 : -0.445
3) Cc1ccc2cc(C(c3nnnn3C3CCCC3)N3CCN(c4ccc(F)cc4)CC3)c(=O)[nH]c2c1 (centres undefined) : -0.372

// below: fluorescence slope requested for another compound
// recorded fluorescence slope for Cc1ccc(-c2cc(C(=O)Nc3cc(C)ccc3C)[nH]n2)c(O)c1 : -0.362
